Where these numbers come from: ChEMBL document CHEMBL3232995

test system: DU-145; assay: Antiproliferative activity against human DU145 cells under normoxia condition assessed as growth inhibition at 10 to 100 uM after 24 hrs by MTT assay; format: functional, cell-based
Activity calls are given as the source filed them. The calls are words filed in the database; no cut-off is given here.

{"smi": "C#CCOC/C(C)=C/CC/C(C)=C/CC/C(C)=C/CC/C(C)=C/CCc1ccoc1", "targetEntity": "DU-145", "growth inhibition (GI)": "Active"}
{"smi": "CC(C)=CCC/C(C)=C/CC/C(C)=C/CC/C(C)=C/CCc1ccoc1", "targetEntity": "DU-145", "growth inhibition (GI)": "Active"}
{"smi": "CC(=O)OC/C(C)=C/CC/C(C)=C/CC/C(C)=C/CC/C(C)=C/CCc1ccoc1", "targetEntity": "DU-145", "growth inhibition (GI)": "Active"}
{"smi": "C#CC/C(C)=C/CC/C(C)=C/CC/C(C)=C/CC/C(C)=C/CCc1ccoc1", "targetEntity": "DU-145", "growth inhibition (GI)": "Active"}
{"smi": "CC#CCC/C(C)=C/CC/C(C)=C/CC/C(C)=C/CC/C(C)=C/CCc1ccoc1", "targetEntity": "DU-145", "growth inhibition (GI)": "Active"}
{"smi": "C/C(=C\\CC/C(C)=C/CC/C(C)=C/CC/C(C)=C/CCc1ccoc1)CO", "targetEntity": "DU-145", "growth inhibition (GI)": "Active"}
{"smi": "C#CCC/C(C)=C/CC/C(C)=C/CC/C(C)=C/CC/C(C)=C/CCc1ccoc1", "targetEntity": "DU-145", "growth inhibition (GI)": "Active"}
